Where these numbers come from: ChEMBL document CHEMBL1142332

pIC50: −log10 of the molar value.
Reported pIC50 values, Vascular endothelial growth factor receptor 2 (Homo sapiens, UniProt P35968).

query_smiles=CNc1ncc(C(=O)Nc2cc(C(=O)Nc3cccc(C(F)(F)F)c3F)ccc2C)c(OC)n1 measurement_target="Vascular endothelial growth factor receptor 2 (Homo sapiens, UniProt P35968)" quantity_name=pIC50 readout_value="< 4.60"
query_smiles=CNc1ncc(C(=O)Nc2cc(C(=O)Nc3cccc(C(F)(F)F)c3)ccc2C)c(Oc2ccccc2)n1 measurement_target="Vascular endothelial growth factor receptor 2 (Homo sapiens, UniProt P35968)" quantity_name=pIC50 readout_value="< 4.60"

--- query ---
Data request: Recall and state the measured pIC50 for COc1nc(NCCCN2CCN(C)CC2)ncc1C(=O)Nc1cc(C(=O)Nc2cccc(C(F)(F)F)c2C)ccc1C .
Data returned: < 4.60

* * *

# Measurement Target: Tyrosine-protein kinase Lck (Homo sapiens, UniProt P06239)
# Sequence (P06239 whole entry): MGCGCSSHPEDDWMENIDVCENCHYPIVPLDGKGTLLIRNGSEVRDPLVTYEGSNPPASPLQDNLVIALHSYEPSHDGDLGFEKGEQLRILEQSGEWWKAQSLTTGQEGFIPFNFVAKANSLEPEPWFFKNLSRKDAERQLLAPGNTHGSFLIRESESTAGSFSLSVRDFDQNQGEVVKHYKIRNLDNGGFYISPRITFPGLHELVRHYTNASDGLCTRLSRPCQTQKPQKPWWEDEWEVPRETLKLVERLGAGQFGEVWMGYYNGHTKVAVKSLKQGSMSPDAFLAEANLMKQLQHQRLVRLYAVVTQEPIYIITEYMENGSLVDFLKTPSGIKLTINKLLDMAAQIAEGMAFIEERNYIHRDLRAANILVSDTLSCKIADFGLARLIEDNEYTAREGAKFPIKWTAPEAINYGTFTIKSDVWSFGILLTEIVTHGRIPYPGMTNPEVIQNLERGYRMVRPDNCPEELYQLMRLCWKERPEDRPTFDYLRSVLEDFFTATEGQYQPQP
Binarize IC50 at 20 nM; below is Satisfied, at or above is Not satisfied.

query_smiles=CNc1ncc(C(=O)Nc2cc(C(=O)Nc3cccc(C(F)(F)F)c3)ccc2C)c(Oc2ccccc2)n1 class="Not satisfied"
query_smiles=COc1nc(NCCCN2CCN(C)CC2)ncc1C(=O)Nc1cc(C(=O)Nc2cccc(C(F)(F)F)c2C)ccc1C class=Satisfied
query_smiles=COc1nc(Nc2ccc(N3CCN(C)CC3)cc2)ncc1C(=O)Nc1cc(C(=O)Nc2cccc(C(F)(F)F)c2F)ccc1C class=Satisfied

Data request: # TODO verify IC50 < 20 nM strictly for this compound: Cc1ccc(C(=O)Nc2cccc(C(F)(F)F)c2)cc1NC(=O)c1cnc(NCCN2CCOCC2)nc1Oc1ccccc1
Data returned: Not satisfied

Data request: # TODO verify IC50 < 20 nM strictly for this compound: COc1nc(NCCCCN(C)C)ncc1C(=O)Nc1cc(C(=O)Nc2cccc(C(F)(F)F)c2C)ccc1C
Data returned: Not satisfied

Data request: # TODO verify IC50 < 20 nM strictly for this compound: CNc1ncc(C(=O)Nc2cc(C(=O)Nc3cccc(C(F)(F)F)c3)ccc2C)c(OC)n1
Data returned: Not satisfied

Data request: # TODO verify IC50 < 20 nM strictly for this compound: CNc1ncc(C(=O)Nc2cc(C(=O)Nc3cccc(C(F)(F)F)c3F)ccc2C)c(OC)n1
Data returned: Satisfied

* * *

Overview of reported pIC50 across a group of compounds:
# Measurement Target: Mitogen-activated protein kinase 14 (Homo sapiens, UniProt Q16539)
# Sequence (Q16539 whole entry): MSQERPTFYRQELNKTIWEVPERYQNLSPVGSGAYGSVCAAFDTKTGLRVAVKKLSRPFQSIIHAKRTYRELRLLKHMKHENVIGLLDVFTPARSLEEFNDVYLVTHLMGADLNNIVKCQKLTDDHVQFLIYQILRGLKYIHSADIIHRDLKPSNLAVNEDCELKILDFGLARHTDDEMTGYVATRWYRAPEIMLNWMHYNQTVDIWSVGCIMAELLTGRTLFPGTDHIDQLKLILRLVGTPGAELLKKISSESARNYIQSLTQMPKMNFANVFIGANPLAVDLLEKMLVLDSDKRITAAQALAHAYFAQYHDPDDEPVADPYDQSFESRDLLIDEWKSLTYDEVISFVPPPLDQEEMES
# Method Description: Inhibition of p38alpha
// scale note: pIC50 = -log10(conc_M); give the bare number

query_smiles=CNc1ncc(C(=O)Nc2cc(C(=O)Nc3cccc(C(F)(F)F)c3)ccc2C)c(OC)n1 readout_value=5.57
query_smiles=CNc1ncc(C(=O)Nc2cc(C(=O)Nc3cccc(C(F)(F)F)c3F)ccc2C)c(NC)n1 readout_value=8.62
query_smiles=COc1nc(Nc2ccc(N3CCN(C)CC3)cc2)ncc1C(=O)Nc1cc(C(=O)Nc2cccc(C(F)(F)F)c2F)ccc1C readout_value=6.07

--- query ---
Data request: State pIC50 on Mitogen-activated protein kinase 14 (Homo sapiens, UniProt Q16539). Entry: CNc1ncc(C(=O)Nc2cc(C(=O)Nc3cccc(C(F)(F)F)c3F)ccc2C)c(OC)n1
Data returned: 6.60
